- System: UACC-62 melanoma
- assay procedure: NCI-60 one-dose screen, 48 h (100 = growth as untreated, 0 = no growth, -100 = all killed)
- condition info: 10 µM unless noted
- Method: Growth inhibition of the UACC-62 human tumor cell line is measured as a screen for anti-cancer activity. Cells are grown in 96 well plates and exposed to the test compound for 48 hours. Compounds are tested at a single concentration, which is 10^-5 M for most compounds. The reported endpoint is percent growth (GI% or GIPRCNT), where numbers from 0 - 100% represent growth inhibition, and numbers from -100% - 0 represent cell death. For example, a value of 40 represents 60% growth inhibition. […]
The panel holds about 83,000 compounds, 20% with a hit somewhere; the sample as a whole holds those more often. Active and inactive are the calls of the source. How the source made its calls: active means growth percent below 10; inactive means the rest.
observation type: growth

Please review the following examples before continuing.
molecule	growth
Brc1ccc(-c2nnc3c4[nH]ccc4ncn23)cc1	72% (inactive)
CC[C@]1(O)CC2CN(CCc3c([nH]c4ccccc34)[C@@](C(=O)OC)(c3cc4c(cc3OC)N(C=O)[C@H]3[C@@](O)(C(=O)OC)[C@H](OC(C)=O)[C@]5(CC)C=CCN6CC[C@]43[C@@H]65)C2)C1 (some centres not stated)	35.6% (inactive)
CCOC(=O)/C(C#N)=C(\C)CCc1ccccc1	110% (inactive)

# return recorded growth for entry "O=C(N=c1n(-c2ccccc2)nc2n1CCN2C1=NCCN1C(=O)c1ccc(Cl)cc1)c1ccc(Cl)cc1" 73.6% (inactive)

# return recorded growth for entry "O=C1C(Cl)=C(Nc2ccc3cn[nH]c3c2)C(=O)c2ccccc21" -97.9% (active)

# return recorded growth for entry "O=C(Nc1ccc(C(=O)/C=C/c2ccc(N3CCOCC3)cc2)cc1)Nc1ccc([N+](=O)[O-])cc1" 79.6% (inactive)

# return recorded growth for entry "O=C(NCCCNC(=O)OCc1ccc2cccc(O)c2n1)OCc1ccc2cccc(O)c2n1" 39.6% (inactive)

# return recorded growth for entry Nc1nc(N)c2c(n1)NC(c1ccc(F)cc1)C1CCc3ccccc3C1=N2 (configuration not stated) 47.5% (inactive)

# return recorded growth for entry "C[C@H]1[C@H](C)CC[C@]2(C(=O)O)CC[C@]3(C)C(=CC[C@@H]4[C@@]5(C)C/C(=C/c6cccnc6)[C@H](O)C(C)(C)[C@@H]5CC[C@]43C)[C@H]12" -70.3% [100 µM] (active)

# return recorded growth for entry "CC(C)=CCC[C@](C)(O)[C@H]1CC[C@]2(C)[C@@H]1CC[C@@H]1[C@@]3(C)CC/C(=N/O)C(C)(C)[C@@H]3CC[C@]12C" -59.2% [100 µM] (active)

# return recorded growth for entry "N=C(N)c1ccc(-c2ccc(-c3ccc(-c4cccs4)s3)s2)cc1F" 97.2% (inactive)

---

- Test system: LOX IMVI melanoma
- assay procedure: NCI-60 one-dose screen, 48 h
- condition info: 10 µM unless noted
This is part of a sample that, as a whole, favours compounds with a hit. Of some 83,000 tested, about 20% had one in any assay. The source made the active and inactive calls. Rule for the calls: active = growth percent below 10; inactive = the rest.
# valid calls are active, inactive; nothing else

molecule	category
C=C(C)[C@@H]1CC[C@]2(C)[C@H](C(=O)C=C3[C@@H]4C[C@](C)(C(=O)N5CCN(C)CC5)CC[C@]4(C)CC[C@]32C)[C@@]1(C)CCC#N	active
Cc1ccc2c(c1)C(C)Cc1c(Cl)ncnc1N2C (configuration not stated)	active
Clc1ccc(/C=N/Nc2nc3ccccc3s2)c(Cl)c1	inactive

In this assay, the call recorded for "Nc1nnc(CSc2nnc3n(Cc4ccccc4)c(=O)c4c5c(sc4n23)CCCC5)s1" was what? inactive

In this assay, the call recorded for "Cn1cc(-c2noc(-c3cn(C)c4ncc(Br)cc34)n2)c2cc(Cl)ccc21" was what? inactive

In this assay, the call recorded for "CC1(C)CC[C@]23CC[C@]4(C)[C@H](CC[C@@H]5[C@@]6(C)C/C(=C/c7cccnc7)C(=O)C(C)(C)[C@@H]6CC[C@]54C)[C@H]2[C@H]1OC3=O" was what? inactive

In this assay, the call recorded for C/C=C/C1OC23CCCCC2C(C#N)(C(=N)O3)C1(C#N)C#N (configuration not stated) was what? inactive

In this assay, the call recorded for "ClC1=C(Cl)C(Cl)=C(Cl)C1=Cc1ccccc1" was what? active

---

- Tested on: OVCAR-5 ovarian
- assay procedure: NCI-60 one-dose screen, 48 h
- condition info: 10 µM unless noted
This is part of a sample that, as a whole, favours compounds with a hit. Of some 83,000 tested, about 20% had one in any assay. The source made the active and inactive calls. The calls were made as follows: active = growth percent below 10; inactive = the rest.
# valid calls are TRUE for active, FALSE for inactive; nothing else

In [3]: df
Out[3]:
                                   compound  category
0  C=C(C)[C@@H]1CC[C@]2(c3ncc(C)o3)CC[C@]3(C)[C@H](CC[C@@H]4[C@@](C)(CCC#N)[C@H](C(=C)C)CC[C@]43C)[C@@H]12      TRUE
1  C[C@]12CCc3nc(Nc4ccccc4)sc3C1=CC[C@@H]1[C@@H]2CC[C@]2(C)/C(=N/NC(N)=S)CC[C@@H]12     FALSE

Now, please, on to the next compound.
In this assay, the call recorded for "CC1=CC[C@@H]2C(C)(C)[C@@H](O)CC[C@@]2(C)[C@@H]1COc1ccc2ccc(=O)oc2c1" was what? FALSE

---

- Tested on: NCI-H522 lung
- assay procedure: NCI-60 one-dose screen, 48 h (100 = growth as untreated, 0 = no growth, -100 = all killed)
- condition info: 10 µM unless noted
This is part of a sample that, as a whole, favours compounds with a hit. Of some 83,000 tested, about 20% had one in any assay. Calls of active or inactive are those of the source. The calls were made as follows: active = growth percent below 10; inactive = the rest.
Consider the following molecules and their measured growth readings.

Please review the following examples before continuing.
In [3]: df
Out[3]:
                                   molecule  system_under_test  observation_type        meas_value
0              c1ccc2c(c1)CN(CCCN1CCOCC1)C2      NCI-H522 lung            growth  98.3% (inactive)
1  COc1cc2c(c(OC)c1)C1c3cc(OC)ccc3NC(=O)N1CC2 (stereo unspecified)      NCI-H522 lung            growth  38.3% (inactive)
2  Cn1cc(-c2nnc(-c3cn(C)c4ncccc34)s2)c2ccccc21      NCI-H522 lung            growth  32.1% (inactive)
3   Cn1cc(-c2nnc(-c3ccccc3)s2)c2cc(Br)cnc21      NCI-H522 lung            growth  89.5% (inactive)
4  O=c1[nH]cnc2c1ccn2C1OC(CO)C(O)C1O (stereo unspecified)      NCI-H522 lung            growth    61% (inactive)

# return recorded growth for entry "CCOC(=O)/C(C#N)=C(\C)CCc1ccccc1" 86.1% (inactive)

---

- System: SK-MEL-28 melanoma
- assay procedure: NCI-60 one-dose screen, 48 h
- condition info: 10 µM unless noted
The panel holds about 83,000 compounds, 20% with a hit somewhere; the sample as a whole holds those more often. Activity calls are given as the source filed them. The calls were made as follows: active = growth percent below 10; inactive = the rest.
# valid calls are active, inactive; nothing else

>>> df
                                   compound  category
0  CCOC(=O)CC(c1ccccc1)C(C#N)c1ccccc1 (stereo not given)  inactive

In this assay, the call recorded for "COc1cc2c(cc1OCCCCCOc1ccc(-n3c(C)nc4ccccc4c3=O)cc1)N=C[C@@H]1CCCN1C2=O" was what? active

In this assay, the call recorded for "CC(=O)Nc1ccc(C=Nc2ccc3ccccc3c2)cc1" was what? inactive

In this assay, the call recorded for "COc1cc(-c2cc(-c3ccc(Nc4ncnc5cc(Cl)ccc45)cc3)nc(N3CCCCC3)n2)cc(OC)c1OC" was what? inactive

In this assay, the call recorded for "C[n+]1c2ccccc2nc2c(N)cc(N)cc21" was what? inactive

In this assay, the call recorded for COc1ccc2c(c1)C(C)Cc1c(ncnc1-n1cnc3ccccc31)N2C (stereo not given) was what? inactive

In this assay, the call recorded for CCOc1cccc2c(NC(C)CCCN(CC)CC)c(C)cnc12 (stereo not given) was what? inactive

In this assay, the call recorded for "COc1ccc(/C=C(/C(=O)c2ccc(Cl)cc2)C(=O)C(F)(F)F)cc1" was what? inactive

In this assay, the call recorded for "CC(C)=CC/C=C(/C)[C@H]1CC[C@]2(C)[C@@H]1CC[C@@H]1[C@@]3(C)CCC(=O)NC(C)(C)[C@@H]3CC[C@]12C" was what? active

In this assay, the call recorded for "O=C1/C(=C\c2cccn2Cc2ccccc2)c2ccccc2N1c1c(Cl)cccc1Cl" was what? inactive

---

- Test system: SK-MEL-2 melanoma
- assay procedure: NCI-60 one-dose screen, 48 h (100 = growth as untreated, 0 = no growth, -100 = all killed)
- condition info: 10 µM unless noted
About 83,000 compounds went through this panel and 20% of them were active in at least one assay; those are over-represented in the sample as a whole. Calls of active or inactive are those of the source. Rule for the calls: active = growth percent below 10; inactive = the rest.
Consider the following compounds and their measured growth readings.

Please review the following examples before continuing.
sample smiles	system under test	meas value
CCOC(=O)CCC[P+](c1ccccc1)(c1ccccc1)c1ccccc1	SK-MEL-2 melanoma	85.4% (inactive)
C=C(C)[C@@H]1CC[C@]2(C(=O)NCCCN)CC[C@]3(C)[C@H](CC[C@@H]4[C@@]5(C)CC[C@H](O)C(C)(C)[C@@H]5CC[C@]43C)[C@@H]12	SK-MEL-2 melanoma	-24.2% [100 µM] (active)
CN(C)c1ccc(-c2ccc(-c3ccc(C(=N)N)cc3)s2)cc1	SK-MEL-2 melanoma	107% (inactive)
Cc1cc(C)c(O)c(CNCCCCCCNCc2cc(C)cc(C)c2O)c1	SK-MEL-2 melanoma	-61.8% (active)
C=C(C)[C@@H]1CC[C@]2(C(=O)NCCNCCNC(=O)OC(C)(C)C)CC[C@]3(C)[C@H](CC[C@@H]4[C@@]5(C)CCC(=O)C(C)(C)[C@@H]5CC[C@]43C)[C@@H]12	SK-MEL-2 melanoma	41.7% [100 µM] (inactive)
Cc1ccc(-c2cn(C/C=C3\C=CN(S(=O)(=O)c4ccccc4)CC3)nn2)cc1	SK-MEL-2 melanoma	101% (inactive)

# return recorded growth for entry "CSc1nc2sc3cc(Cl)c(Cl)cc3n2c(=N)c1C#N" 102% (inactive)

# return recorded growth for entry "Cc1ccc(-n2nc3n(/c2=N\C(=O)NS(=O)(=O)c2ccc(C)cc2)CCN3C2=NCCN2)cc1" 109% (inactive)
